# target desc: furin, P09958;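 also: purified furin at 1:10 enzyme:substrate in 50 mM HEPES pH 7.5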
# Sequence (P09958 whole entry): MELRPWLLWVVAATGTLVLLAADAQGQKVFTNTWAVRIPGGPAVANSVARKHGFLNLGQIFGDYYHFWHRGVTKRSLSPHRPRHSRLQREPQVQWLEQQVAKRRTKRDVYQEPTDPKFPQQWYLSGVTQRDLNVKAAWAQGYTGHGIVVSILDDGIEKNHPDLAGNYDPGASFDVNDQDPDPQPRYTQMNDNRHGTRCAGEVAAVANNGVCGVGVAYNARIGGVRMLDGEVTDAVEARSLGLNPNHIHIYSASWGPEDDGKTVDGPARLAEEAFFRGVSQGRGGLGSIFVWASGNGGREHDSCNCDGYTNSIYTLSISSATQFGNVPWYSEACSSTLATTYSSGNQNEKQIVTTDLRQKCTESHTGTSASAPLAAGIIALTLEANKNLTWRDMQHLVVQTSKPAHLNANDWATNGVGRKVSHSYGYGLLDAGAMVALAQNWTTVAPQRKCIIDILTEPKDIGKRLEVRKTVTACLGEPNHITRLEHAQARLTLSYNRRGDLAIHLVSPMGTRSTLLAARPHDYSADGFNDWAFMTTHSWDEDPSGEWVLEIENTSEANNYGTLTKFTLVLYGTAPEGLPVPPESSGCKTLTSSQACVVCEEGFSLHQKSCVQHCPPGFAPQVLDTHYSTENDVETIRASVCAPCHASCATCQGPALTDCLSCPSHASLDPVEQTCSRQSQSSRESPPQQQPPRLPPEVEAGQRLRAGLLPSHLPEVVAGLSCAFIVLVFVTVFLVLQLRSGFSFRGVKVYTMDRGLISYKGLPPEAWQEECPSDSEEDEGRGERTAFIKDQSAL
# protocol details: furin cleavage Z-score vs untreated control; higher = more cleavage, active = 3.5 or more, inactive = 1 or less, 8 variable residues between constant flanks
# assay context: 15 min
Some of the results follow. No count for the full screen is at hand.
In this exercise, the only acceptable responses are active, inactive

# count of solved cases: 5
1. CAHPQRSKKAAGNASASA [FS-248]    inactive
2. CAAKVLVVLLAGNASASA [HC345]    inactive
3. CAPCAAEEQKAGNASASA [HC1377]    inactive
4. CAVPQSFQVAAGNASASA [HC770]    inactive
5. CAKTPCSGSWAGNASASA [HC1834]    inactive

QUERY: For CAPSQRSKRPAGNASASA [FS-477] , which call appears in the assay record?
RESULT: inactive

QUERY: Give the logged outcome of this assay for the following sequence: CARRRRVVPEAGNASASA [FS-2082]
RESULT: active

Data provenance: the supplement of paper PMC3545927
